The values you see were collected from ChEMBL document CHEMBL4342406.

# Test system: A549
# PROTOCOL TEXT: Cytotoxicity against human A549 cells assessed as reduction in cell viability after 72 hrs by MTT assay
# Format: functional, cell-based
# EXPERIMENTAL CONTEXT: A549, 72 h
MEASURED METRIC: pIC50
Units for pIC50: none; it is -log10 of a concentration expressed in mol/L.

Input line: Kindly state the measured pIC50 obtained for COc1ccc(Cn2cnc3c(cc(N4CCOCC4)c4ccccc43)c2=O)cc1 with A549.
Output line: 3.87

====

# Test system: Lymphocyte
# PROTOCOL TEXT: Cytotoxicity against human lymphocytes assessed as reduction in cell viability after 72 hrs by MTT assay
# Type: cell-based
MEASURED METRIC: IC50 (µM)
Field: numeric (µM). Do not append units.

Input line: Entry COc1ccc(Cn2cnc3c(cc(N4CCOCC4)c4ccccc43)c2=O)cc1 has what IC50?
Output line: 175

====

# STUDY SYSTEM: Epidermal growth factor receptor (Homo sapiens, UniProt P00533, T790M)
# Sequence (P00533 25-1210 T790M limits assumed): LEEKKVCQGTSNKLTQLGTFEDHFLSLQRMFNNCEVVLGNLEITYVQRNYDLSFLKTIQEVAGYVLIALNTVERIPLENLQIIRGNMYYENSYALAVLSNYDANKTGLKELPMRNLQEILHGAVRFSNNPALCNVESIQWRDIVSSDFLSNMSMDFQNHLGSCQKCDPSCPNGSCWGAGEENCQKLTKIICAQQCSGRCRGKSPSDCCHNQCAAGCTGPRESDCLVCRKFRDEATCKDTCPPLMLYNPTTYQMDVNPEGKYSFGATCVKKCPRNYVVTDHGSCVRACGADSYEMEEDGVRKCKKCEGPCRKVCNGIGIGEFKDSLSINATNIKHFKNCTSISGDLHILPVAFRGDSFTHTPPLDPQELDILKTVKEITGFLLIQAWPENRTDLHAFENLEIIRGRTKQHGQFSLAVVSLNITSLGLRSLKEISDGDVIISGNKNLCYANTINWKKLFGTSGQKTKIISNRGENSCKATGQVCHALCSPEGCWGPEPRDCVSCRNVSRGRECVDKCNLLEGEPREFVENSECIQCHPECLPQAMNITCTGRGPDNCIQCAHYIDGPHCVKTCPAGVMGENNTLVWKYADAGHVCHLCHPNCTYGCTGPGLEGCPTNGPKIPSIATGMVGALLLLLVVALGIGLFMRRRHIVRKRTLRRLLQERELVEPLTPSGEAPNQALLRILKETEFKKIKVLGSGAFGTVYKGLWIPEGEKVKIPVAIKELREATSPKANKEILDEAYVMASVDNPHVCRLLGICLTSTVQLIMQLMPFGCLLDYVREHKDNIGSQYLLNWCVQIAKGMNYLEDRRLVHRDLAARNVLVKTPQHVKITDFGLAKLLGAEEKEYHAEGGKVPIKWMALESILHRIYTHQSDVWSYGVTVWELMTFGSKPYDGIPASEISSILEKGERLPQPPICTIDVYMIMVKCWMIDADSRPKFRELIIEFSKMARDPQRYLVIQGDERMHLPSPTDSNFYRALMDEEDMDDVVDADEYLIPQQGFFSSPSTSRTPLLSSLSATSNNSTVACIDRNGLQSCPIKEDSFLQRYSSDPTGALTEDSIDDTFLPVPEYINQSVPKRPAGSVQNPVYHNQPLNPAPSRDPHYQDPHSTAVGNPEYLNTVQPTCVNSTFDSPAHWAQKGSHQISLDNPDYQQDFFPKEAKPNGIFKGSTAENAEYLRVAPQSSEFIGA
# PROTOCOL TEXT: Inhibition of EGFR T790M mutant (unknown origin) incubated for 60 mins by ADP-Glo kinase assay
MEASURED METRIC: pIC50
// pIC50: -log10(molar conc.)

Input line: Can you look up the measured pIC50 of C=CC(=O)Nc1cccc(Nc2ncnc3cc(OC)c(OCCN4CCOCC4)cc23)c1 for me?
Output line: 8.37

====

# Test system: Bel-7402
# PROTOCOL TEXT: Antiproliferative activity in human Bel7402 cells after 72 hrs by MTS assay
# Type: functional, cell-based
# EXPERIMENTAL CONTEXT: Bel-7402, 72 h
MEASURED METRIC: IC50 (nM)
The figure you give is taken to be in nM; do not add the unit.

Input line: Query the reported IC50 for Bel-7402; item: O=c1ccc(-c2cc(C(F)(F)F)c(N3CCOCC3)nn2)n[nH]1
Output line: 285

====

# System: MCF7
# PROTOCOL TEXT: Cytotoxicity against human MCF7 cells assessed as reduction in cell viability incubated for 3 days by MTT assay
# Assay type: functional, cell-based
# EXPERIMENTAL CONTEXT: MCF7, 72 h
MEASURED METRIC: pIC50
Convention used: pIC50 is expressed as -log10 of the molar concentration.

Input line: What value of measured pIC50 is listed for COc1c2ccoc2c(S(=O)(=O)N2CCOCC2)c2oc(C)c(C(C)=O)c(=O)c12 ?
Output line: 6.90

====

# Test system: QGY-7703
# PROTOCOL TEXT: Antiproliferative activity in human QGY7703 cells after 72 hrs by MTS assay
# Type: functional, cell-based
# EXPERIMENTAL CONTEXT: QGY-7703, 72 h
MEASURED METRIC: IC50
Please make sure the unit comes right after the number.

Input line: Give the reported IC50 for O=c1ccc(-c2cc(C(F)(F)F)c(N3CCOCC3)nn2)n[nH]1 (system: QGY-7703).
Output line: 178 nM
